- experimentNotes: qHTS for Stage-Specific Inhibitors of Vaccinia Orthopoxvirus: Venus Reporter Primary qHTS; further: nearly all actives have a fitted effect of over 30% in size
- assayContext: Vaccinia virus Venus reporter expression, fluorescence; series mostly up to 36.5 µM
In all, about 330,000 compounds went through this assay and about 1,500 (0.45%) were called active. Roughly 6% stayed inconclusive and do not appear here. The call rests on the fitted dose curve; tested in A549 cells. The list comes from a sample in which actives are over-represented; it also holds close analogues and randomly drawn compounds.
Outcome (select one): yes = active, no = inactive

Study these solved cases before continuing.
- molecule: "Cn1c(=O)[nH]c(=O)c2c1nc(N1CCN(CCO)CC1)n2CCSc1nc2ccccc2s1"
  classAssignment: "no"
- molecule: "CN(O)C(=S)c1ccccc1"
  classAssignment: "yes"
- molecule: "CC(=O)/C(=N\\Nc1ccc(Cl)cc1Cl)Sc1cccc2cccnc12"
  classAssignment: "yes"
- molecule: "N#Cc1ccc(C(C(=O)NCc2ccccc2)n2c(=O)c(-c3ccco3)nc3ccccc32)cc1 (stereo not drawn)"
  classAssignment: "no"
- molecule: "CCN(CC)c1ncnc2c1ncn2[C@H]1CN(Cc2cccs2)C[C@@H](CO)O1"
  classAssignment: "no"
- molecule: "COc1c(Cl)cc(Cl)cc1C(=O)Nc1cccc2cccnc12"
  classAssignment: "no"
- molecule: "S=C(c1ccccc1)N1CCCC1"
  classAssignment: "no"
- molecule: "CCC(C(=O)NC(C)(C)C)n1c(-c2ccccc2)nc2ccccc21 (stereo not drawn)"
  classAssignment: "no"
- molecule: "CCOC(=O)c1cc2cc(OC)ccc2n1C1CCN(C)CC1"
  classAssignment: "no"
- molecule: "COc1ccc(-c2nc3ccc(Br)cn3c2Cc2ccc(C)cc2)cc1OC"
  classAssignment: "no"

Challenge: How did this test come out for `Cn1c(=O)[nH]c(=O)c2c1nc(N1CCN(C(c3ccccc3)c3ccccc3)CC1)n2CCO` ?
Response given: yes

Challenge: How did this test come out for COC(=O)C1=CN(c2c(C)cc(C)cc2C)C(N)=C(C#N)C1c1cccc(F)c1 (stereo not drawn) ?
Response given: no

Challenge: How did this test come out for Cc1cccc(-c2nnc(SC(C)C(=O)Nc3ccccc3)n2C)c1 (stereo not drawn) ?
Response given: no
